- measurement_notes: MTT cytotoxicity assay, LO2
- Assay type: cell-based, human
- test_conditions: human, LO2 cells
Field: IC50 at 48 h. Provide a value for each of the molecules that follow.

- molecule: "Cc1ccc2ccc3ccc(C)nc3c2n1 [Ligand 8, 2,9-dimethyl-1,10-phenanthroline]"
  experimental_readout: "IC50 at 48 h"
  recorded_result: "> 100 µM"

IC50 at 48 h lookup needed for Clc1cc(-c2ccccc2)nc2ccccc12 [Ligand 7, 4-chloro-2-phenylquinoline] , thanks. > 100 µM

Data provenance: paper PMC8710994
